# test method notes: binders of probe aFST on microarray, primary screen, stem cell growth factor project, biochemical, small-molecule microarray, fluorescence 635/667 (AID 1086);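 further: score merges 667 nm fluorescence with signal-to-noise of each printed compound spot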
# measurement parameters: higher = more signal
result type: composite z-score
Lab note: record just the number, no unit beside it.

Return composite z-score (reported value) for this compound: CCOC(=O)[C@H](CC(C)C)NC(=O)CCC1CC(OC(=O)NCc2ccc3c(c2)OCO3)CC2(CCCC(COC(=O)NCCOc3ccccc3)O2)O1 (stereo partly drawn) 0.0762

Return composite z-score (reported value) for this compound: Cc1ccc(S(=O)(=O)N[C@@H]2COC(=O)CC=C[C@@H](C)[C@H](NS(=O)(=O)c3ccc(C)cc3)COC(=O)[C@H](C)NC(=O)CC=C[C@H]2C)cc1 -0.18

Return composite z-score (reported value) for this compound: CC(CCN1CCCc2nc(C)c(C)cc21)=NO[C@H](C)c1cn([C@H](CO)Cc2ccccc2)nn1 0.64

Return composite z-score (reported value) for this compound: COC(OC)[C@@H](C)[C@H](OC)[C@@H](C)[C@H](OC)c1ccccc1 -0.0188

Return composite z-score (reported value) for this compound: CO[C@@H]1C=CCC(=O)N[C@@H](C)C(=O)OC[C@@H](NS(=O)(=O)c2ccc(C)cc2)[C@H](C)C=CCC(=O)OC[C@H]1C -0.0849

Return composite z-score (reported value) for this compound: CCN1C(=O)[C@H]2[C@H]3[C@H](O)[C@H](O)CC(=NOC[C@@H](O)[C@H]4O[C@@H]5OC(C)(C)O[C@@H]5[C@H]4O)[C@@H]3CC[C@H]2C1=O 0.156

Return composite z-score (reported value) for this compound: O=C1C=C[C@@H](O)[C@@H]2[C@@H]3C(=O)N(c4cccc(Oc5ccccc5)c4)C(=O)[C@@H]3CC[C@@H]12 0.241

Return composite z-score (reported value) for this compound: COC(=O)[C@H](C)NC(=O)CCC1CC(OC(=O)NCc2ccc3c(c2)OCO3)CC2(CCCC(COC(=O)NCCc3ccc(Cl)cc3)O2)O1 (stereo partly drawn) 0.17

Return composite z-score (reported value) for this compound: CON=C(C)CCN1CCCc2nc(C)c(C)cc21 0.192

Return composite z-score (reported value) for this compound: CCN1C(=O)[C@H]2[C@H]3[C@H](O)[C@H](O)CC(=NO[C@H](C)c4cn([C@@H]5COC[C@H]5O)nn4)[C@@H]3CC[C@H]2C1=O 0.0423

Return composite z-score (reported value) for this compound: C=CC[C@@H]1C=C[C@H](ON=C(C)CCN2CCCCc3nc(C)c(C)cc32)[C@@H](CO)O1 0.238

Return composite z-score (reported value) for this compound: CC(CCC(=O)OC[C@H]1O[C@H](C#Cc2ccccc2)C=C[C@@H]1Oc1ccc(C)cc1)=NOC(C)CN1CCCc2nc(C)c(C)cc21 (stereo partly drawn) 0.69

Return composite z-score (reported value) for this compound: CCOC(=O)[C@H](Cc1ccccc1)NC(=O)CCC1CC(OC(=O)NCc2cccc3ccccc23)CC2(CCCC(COC(=O)NCCc3ccc(Cl)cc3)O2)O1 (stereo partly drawn) -0.0328

Return composite z-score (reported value) for this compound: CCOC(=O)CCN1C(=O)[C@H]2[C@H]3[C@H](O)[C@H](O)CC(=NNC(=O)OCC)[C@H]3CC[C@H]2C1=O 0.0166

Return composite z-score (reported value) for this compound: CO[C@H]1C[C@@H]2C[C@H](O)CC(CC(=O)O[C@@H](C=CCC(C)C)C[C@@H]3CC[C@H](C)[C@@H](C1)O3)O2 0.36

Return composite z-score (reported value) for this compound: CCOC(=O)[C@H](Cc1ccccc1)NC(=O)CCC1CC(OC(=O)NCc2ccc3c(c2)OCO3)CC2(CCCC(COC(=O)NCCc3ccc(Cl)cc3)O2)O1 (stereo partly drawn) -0.18

Return composite z-score (reported value) for this compound: CC(C)=CCCC(C)=CCON=C1[C@H]2CCn3c(=O)n(-c4ccccc4)c(=O)n3[C@H]2[C@H](O)[C@@H]2O[C@H]12 0.516

Return composite z-score (reported value) for this compound: COC(=O)[C@H](C)NC(=O)CCC1CC(OC(=O)NCc2cccc3ccccc23)CC2(CCCC(COC(=O)NCCCN3CCCC3=O)O2)O1 (stereo partly drawn) 1.01

Return composite z-score (reported value) for this compound: COc1ccc(COC(=O)NN=C2C[C@@H](O)[C@@H](O)[C@@H]3[C@@H]4C(=O)N(Cc5ccccc5)C(=O)[C@@H]4CC[C@@H]23)cc1 0.268

Return composite z-score (reported value) for this compound: CC(=O)OC[C@H]1O[C@H](CCON=C(C)CCN2CCCc3nc(C)c(C)cc32)C=C[C@@H]1OC(C)=O 0.522

Return composite z-score (reported value) for this compound: CC(C)(C)N1C(=O)[C@H]2[C@H]3[C@H](O)[C@H](O)CC(=NNC(=O)OCc4ccccc4)[C@@H]3CC[C@H]2C1=O 0.278

Return composite z-score (reported value) for this compound: CCOC(=O)[C@H](Cc1ccccc1)NC(=O)CCC1CC(OC(=O)NCCc2ccc(F)cc2)CC2(CCCC(COC(=O)NCCOc3ccccc3)O2)O1 (stereo partly drawn) 0.564

Return composite z-score (reported value) for this compound: CCCNC(=O)OC[C@H]1O[C@H](CCON=C2C[C@@H](O)[C@@H](O)[C@@H]3[C@@H]4C(=O)N(CC)C(=O)[C@@H]4CC[C@@H]23)C=C[C@@H]1Oc1ccc(OC)cc1 0.46

Return composite z-score (reported value) for this compound: CCc1cc2c(nc1CC)CCN(CCC(C)=NOCC[C@@H]1C=C[C@H](OC(C)=O)[C@@H](COC(C)=O)O1)C2 0.851

Return composite z-score (reported value) for this compound: C#CCCCON=C1C[C@@H](O)[C@@H](O)[C@@H]2[C@@H]3C(=O)N(C[C@@H]4CCCO4)C(=O)[C@@H]3CC[C@@H]12 -0.0371

Return composite z-score (reported value) for this compound: CCOC(=O)[C@H](Cc1ccccc1)NC(=O)CCC1CC(OC(=O)NCc2cccc3ccccc23)CC2(CCCC(COC(=O)NCC3CCCCC3)O2)O1 (stereo partly drawn) 0.253

Return composite z-score (reported value) for this compound: CC(C)CON=C1C[C@@H](O)[C@@H](O)[C@@H]2[C@@H]3C(=O)N([C@@H](C)c4ccccc4)C(=O)[C@@H]3CC[C@@H]12 0.624

Return composite z-score (reported value) for this compound: COC(=O)[C@H](C)NC(=O)CCC1CC(OC(=O)NCc2cccc3ccccc23)CC2(CCCC(COC(=O)NCCC(C)C)O2)O1 (stereo partly drawn) 0.0638

====

# assayed system: Torsin-1A (Homo sapiens) (UniProt O14656)
# Sequence (O14656 whole entry, looked up): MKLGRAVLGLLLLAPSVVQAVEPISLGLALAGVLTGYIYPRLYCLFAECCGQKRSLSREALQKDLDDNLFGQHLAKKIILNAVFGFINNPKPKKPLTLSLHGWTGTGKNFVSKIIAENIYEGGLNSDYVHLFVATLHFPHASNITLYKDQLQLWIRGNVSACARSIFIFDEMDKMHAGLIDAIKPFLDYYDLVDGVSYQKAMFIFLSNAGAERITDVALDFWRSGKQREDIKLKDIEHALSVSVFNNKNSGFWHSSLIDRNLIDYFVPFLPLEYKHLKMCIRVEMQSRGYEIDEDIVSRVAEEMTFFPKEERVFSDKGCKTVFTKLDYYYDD
# test method notes: small-molecule binders of mutant TOR1A in lysate, primary screen, cell lysate, small-molecule microarray, COS7 lysate, 635/667 nm fluorescence (AID 1150);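 further: score pools 667 nm emission and signal to noise measuring lysate protein binding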
# measurement parameters: COS7 hTOR1A mutant lysate, 635 nm fluorescence, higher = more signal
result type: composite z-score
Lab note: record just the number, no unit beside it.

Return composite z-score (reported value) for this compound: CON=C1c2cc(OC)ccc2O[C@H](c2cccc(OC)c2)[C@H]1O 0.517

Return composite z-score (reported value) for this compound: C#CCCCON=C1C[C@@H](O)[C@@H](O)[C@@H]2[C@@H]3C(=O)N(C[C@@H]4CCCO4)C(=O)[C@@H]3CC[C@H]12 0.406

Return composite z-score (reported value) for this compound: COC(=O)[C@H](C)NC(=O)CCC1CC(OC(=O)NCc2cccc3ccccc23)CC2(CCCC(COC(=O)NCc3cccc(C(F)(F)F)c3)O2)O1 (some centres not stated) 0.225

Return composite z-score (reported value) for this compound: C[C@@H]1C=CCC(=O)OC[C@H](C)C(=O)N[C@@H](Cc2ccccc2)C(=O)OC1 0.59

Return composite z-score (reported value) for this compound: COC(=O)C(C(=O)OC)C1CCCC(=O)C1 (configuration not stated) 1.42

Return composite z-score (reported value) for this compound: COC(=O)[C@H](C)NC(=O)CCC1CC(OC(=O)NCCc2ccc(F)cc2)CC2(CCCC(COC(=O)NCCc3ccccc3OC)O2)O1 (some centres not stated) 0.519

Return composite z-score (reported value) for this compound: CCOC(=O)[C@H](Cc1ccccc1)NC(=O)CCC1CC(OC(=O)NCc2cccc3ccccc23)CC2(CCCC(COC(=O)NCCc3ccccc3OC)O2)O1 (some centres not stated) 0.0946

Return composite z-score (reported value) for this compound: CC(CCC(=O)OC[C@H]1O[C@H](C#Cc2ccccc2)C=C[C@@H]1Oc1ccc(C)cc1)=NOC(C)CN1CCCCc2nc(C)c(C)cc21 (some centres not stated) -0.269

Return composite z-score (reported value) for this compound: Cc1ccc(S(=O)(=O)N[C@@H]2COC(=O)CC=C[C@@H](C)[C@H](NS(=O)(=O)c3ccc(C)cc3)COC(=O)[C@H](C)NC(=O)CC=C[C@H]2C)cc1 0.0835

Return composite z-score (reported value) for this compound: CON(C)C(=O)c1nnc2c(n1)[nH]c1ccccc12 0.333

Return composite z-score (reported value) for this compound: CC(C)=NO[C@H](C)c1cn([C@@H]2COC[C@H]2O)nn1 0.461

Return composite z-score (reported value) for this compound: CCN1C(=O)[C@H]2[C@H]3[C@H](O)[C@H](O)CC(=NO[C@@H]4O[C@H](CO)[C@@H](O)[C@H](O)[C@H]4O)[C@H]3CC[C@H]2C1=O 0.577

Return composite z-score (reported value) for this compound: C[C@@H]1CC[C@@H](C(=O)O)N[C@H]1c1cccc(N2CCOCC2)c1 0.944

Return composite z-score (reported value) for this compound: CCOC(=O)CCN1C(=O)[C@H]2[C@@H]3C(=CC[C@H]2C1=O)C(=O)[C@H]1O[C@H]1[C@H]3O 0.914

Return composite z-score (reported value) for this compound: Cc1cc2c(nc1C)CCCCN2CC(O)CN1CCCc2nc(-c3ccc(Br)cc3)ccc21 (configuration not stated) 0.154

Return composite z-score (reported value) for this compound: COC(=O)[C@H](Cc1ccccc1)NC(=O)[C@@H](C)CO 0.0866

Return composite z-score (reported value) for this compound: CC(C)=CCCC(C)=CCON=C1C[C@@H](O)[C@@H](O)[C@@H]2[C@@H]3C(=O)N(c4cccc(Oc5ccccc5)c4)C(=O)[C@@H]3CC[C@H]12 0.704
